# test_system: T1, cynomolgus soluble urokinase plasminogen activator receptor (cynomolgus suPAR) (cynomolgus, UniProt Q9GK78 23-303, limits assumed)
# T1 construct: also called cynomolgus uPAR; cynoPLAUR-His
# T1 sequence (Q9GK78 23-303 limits assumed): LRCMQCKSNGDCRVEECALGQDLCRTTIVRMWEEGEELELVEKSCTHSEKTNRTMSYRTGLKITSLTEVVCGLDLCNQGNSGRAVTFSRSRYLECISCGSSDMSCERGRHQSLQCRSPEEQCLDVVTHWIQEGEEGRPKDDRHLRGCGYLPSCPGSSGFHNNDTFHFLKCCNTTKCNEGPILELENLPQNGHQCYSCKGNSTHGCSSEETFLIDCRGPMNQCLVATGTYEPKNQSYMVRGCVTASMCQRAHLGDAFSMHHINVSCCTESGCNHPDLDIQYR
# assay: off-rate screen of scFv clones (kdis), Octet BLI
observation_type: koff (s⁻¹)

- suPAR_DB04_G07 (scFv, V domains shown, scFv clone from phage display) VH: QVQLVQSGAEVKKPGASVKVSCKASGFSFTTYYMHWVRQAPGQGLEWMGWIDPENGNTIYAQKFQGRVTMTRDTSTSTVYMELSSLRSEDTAVYYCARGYDVDWFVYWGQGTLVTVSS VL: DIQMTQSPSSLSASVGDRVTITCSARSSVSYMYWYQQKPGKAPKLLIYRTSNLASGVPSRFSGSGSGTDFTLTISSLQPEDFATYYCQQYHSYPPTFGGGTKVEIK: 5.96e-07
- suPAR_DB04_D03 (scFv, V domains shown, scFv clone from phage display) VH: QVQLVQSGAEVKKPGASVKVSCKASGYTFTSYYMHWVRQAPGQGLEWMGWIDPENGSTIYDQKFQGRVTMTRDTSTSTVYMELSSLRSEDTAVYYCARGYDVDWFVYWGQGTLVTVSS VL: DIQMTQSPSSLSASVGDRVTITCRARQSVSYMYWYQQKPGKAPKLLIYRTSNLASGVPSRFSGSGSGTDFTLTISSLQPEDFATYYCQQYHSYPPTFGGGTKVEIK: 0.000353

Ref: patent US20250215104A1
